These entries and their values trace back to the supplement of paper PMC10126150.

Tested on: ATP;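 also: ATP exposure 15 min at 22 °C before imaging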
Protocol notes: switch fluorescence ratio, 500 uM ATP over buffer (Cy3 cluster intensity, sum of 5 cycles each) (fold (ratio)); higher = stronger signal-on switching upon ATP binding; sequences stand for … in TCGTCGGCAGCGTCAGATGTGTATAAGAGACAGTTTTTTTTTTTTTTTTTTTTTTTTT…TC
Assay conditions: aptamer strand: ATP DNA aptamer (quencher-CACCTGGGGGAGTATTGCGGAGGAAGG + anchor), 100 nM annealed; ATP concentration: 500 uM
Measured attribute: switch fluorescence ratio
Lab note: jot down the number only; don't add units.

Returns the measured switch fluorescence ratio for the input sequence. Input: "CCTTTAGGGT" 1

Look up switch fluorescence ratio: "TATCCGAACG" 1.45

What measured switch fluorescence ratio goes with "TTGAAGTGCG" ? 1.02

Endpoint output: switch fluorescence ratio of "ATCGATTGTT" . Value? 1.01

What does the data say about its switch fluorescence ratio? Entry: "AGCCTCTATA" 1.01

Report switch fluorescence ratio for "GGTCAGTGAT" please. 1.01

Could you tell me which switch fluorescence ratio is on file for "CGGGGCAGGG" ? 1.01

Endpoint output: switch fluorescence ratio of "CGTAGACGAG" . Value? 1.03

Tell me the measured switch fluorescence ratio of "AAGGGGTATT" , please. 1.01

###

System: ATP;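 also: ATP exposure 15 min at 22 °C before imaging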
Protocol notes: switch fluorescence ratio, 500 uM ATP over buffer (Cy3 cluster intensity, sum of 5 cycles each) (fold (ratio)); higher = stronger signal-on switching upon ATP binding; sequences stand for … in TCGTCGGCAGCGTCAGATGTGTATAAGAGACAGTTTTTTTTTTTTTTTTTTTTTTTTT…TC
Assay conditions: aptamer strand: ATP DNA aptamer (quencher-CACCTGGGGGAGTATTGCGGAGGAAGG + anchor), 100 nM annealed; ATP concentration: 500 uM
Measured attribute: switch fluorescence ratio
Answer with a number only.

Request the reported switch fluorescence ratio associated with "GGGGAGTAGC" 0.999

Can you look up the measured switch fluorescence ratio of "TTCTTTGTTG" for me? 0.984

GET /values?readout=switch fluorescence ratio&item= "AGGGGAGAAC" 0.976

Item "CGGGTGGCAG" has what recorded switch fluorescence ratio? 1.01

Item under review: "GTTTAAGTTC" . Reported switch fluorescence ratio? 0.988

Suppose we examine the sequence "GATGCGCGTG" ; what switch fluorescence ratio value has been reported? 1

Sample "CCAGAACGAA" — what was its switch fluorescence ratio? 1.04

Which value of switch fluorescence ratio has been reported for "CTTGCTGGTT" in the records? 0.999

// switch fluorescence ratio lookup, key: "GTTCTTGGAG" 0.999

Fill blank: measured switch fluorescence ratio of the sequence "ATCTTTTAGG" is ____. 1.07

For the sequence shown here, "TCCTGGTGCG" , give the reported switch fluorescence ratio. 1.13

Requested read-out: switch fluorescence ratio. Entry: "AGTATCCAAA" 0.999

Dear colleague, I am looking for the recorded switch fluorescence ratio of the following sequence: "TTTTGGTTTA" 1

Which value of switch fluorescence ratio has been reported for "CGGGGCTGCT" in the records? 1.01

###

Give measured switch fluorescence ratio for each item. Keep answers brief.
Test system: ATP;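 also: ATP exposure 15 min at 22 °C before imaging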
Protocol notes: switch fluorescence ratio, 500 uM ATP over buffer (Cy3 cluster intensity, sum of 5 cycles each) (fold (ratio)); higher = stronger signal-on switching upon ATP binding; sequences stand for … in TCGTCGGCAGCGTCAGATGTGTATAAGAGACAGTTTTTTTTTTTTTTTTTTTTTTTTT…TC
Assay conditions: aptamer strand: ATP DNA aptamer (quencher-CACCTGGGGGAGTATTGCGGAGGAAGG + anchor), 100 nM annealed; ATP concentration: 500 uM
Please respond with just the number, no unit label.

Form field - read-out: switch fluorescence ratio; system: ATP; submitted item: "TCCTTGTGGT" 0.973

switch fluorescence ratio of "ATGTCTGTAA" on ATP? 1

Record "CGGATTTTCA" : what is its switch fluorescence ratio with ATP? 1

Lookup: switch fluorescence ratio / ATP / "GTTTTAACTT" 0.999

// fetch ATP switch fluorescence ratio for "CCTCACCCTT" 1.13

Which measured switch fluorescence ratio belongs to "GATCCGAGAC" , tested on ATP? 1.52

Lab note: need switch fluorescence ratio for "AGTCGGATTC" on ATP, anyone have it? 1.09

Recall the recorded switch fluorescence ratio for "GTTAGGTTGG" with ATP and state it. 0.981

What measured switch fluorescence ratio is associated with "TATTTAAGGG" on ATP? 1.12

Request body: readout switch fluorescence ratio, system ATP, query "GGATCCTTTC" . Return the value. 1.23

Could you share what switch fluorescence ratio was measured for "GGGGGCATAT" , tested on ATP? 1.02

Recorded switch fluorescence ratio for "ACTGTAACGG" with ATP, please? 1.19

Request body: readout switch fluorescence ratio, system ATP, query "AGATTAGCGC" . Return the value. 0.981

Entry "TTCGGGGTTA" , system ATP: what switch fluorescence ratio was measured? 1.01

Item "GAGGCTAGTT" with ATP - switch fluorescence ratio? 0.994

Report switch fluorescence ratio for "TCTGGGTCGC" tested on ATP. 1.02

Please tell me: switch fluorescence ratio of "AGCAGCGCGG" , system ATP? 1.04

GET /values?readout=switch fluorescence ratio&system=ATP&item= "AACTTTGTGC" 1

So what switch fluorescence ratio did "AGCCTGGTGG" get with ATP? 1.05

Test system ATP; read-out switch fluorescence ratio; what value for "ATCAAAAGCG" ? 0.968

Provide value of switch fluorescence ratio for this record tested with ATP: "AATAAGGGGG" 1.01

Enter reported switch fluorescence ratio observed with ATP for "TTACTTTGGG" 0.989

Give the reported switch fluorescence ratio for "GGGGATGGGT" (system: ATP). 0.999

Lab request: please report switch fluorescence ratio under test system ATP for "ATTTGTGAGA" 0.998

Provide value of switch fluorescence ratio for this record tested with ATP: "GATGTAAACG" 1.02

Entry "AGGGGAAAGC" , system ATP: what switch fluorescence ratio was measured? 1.01

Request - read-out switch fluorescence ratio | tested on ATP | sequence "TACATTGACG" 1.02

Recorded switch fluorescence ratio for "GAGTGGTTAG" with ATP, please? 0.988

# value lookup — system ATP, readout switch fluorescence ratio, item "TGGCACGACA" 1.09

Item: "AACGGTCACA" Test system: ATP Read-out: switch fluorescence ratio Value: ? 1.16

Missing value: switch fluorescence ratio, ATP, entry "TCTAGGACGT" . Fill in? 1.02

Recall the recorded switch fluorescence ratio for "CGGAAGACGT" with ATP and state it. 1.02

Given the entry "TGCCGGGAAA" , what switch fluorescence ratio was observed with ATP? 1.01

What is its switch fluorescence ratio for ATP? Entry: "GATAGTGGCA" 1.03

Given the entry "ATGATGGGGA" , what switch fluorescence ratio was observed with ATP? 0.987

Enter reported switch fluorescence ratio observed with ATP for "GTAGTGGGGG" 0.975

Field: switch fluorescence ratio (ATP). Entry: "GGTTTGGTGG" 0.992

For the record "GCCCTTTTAC" , what value of switch fluorescence ratio is listed for ATP? 1.19

Please state recorded switch fluorescence ratio (tested on ATP) of "AGCCCTAAGG" 0.979

What is its switch fluorescence ratio for ATP? Entry: "TATAATCGA" 1.03

What is its switch fluorescence ratio for ATP? Entry: "TGACTGAAGG" 0.95

Missing value: switch fluorescence ratio, ATP, entry "GGGGTAGCGC" . Fill in? 0.974

Param readout= switch fluorescence ratio; system= ATP; entry= "TATTCAGTGC" ; returns value. 1.01

# returns recorded switch fluorescence ratio (system: ATP) for "TAAAATGTTA" 0.985

Form entry - test system: ATP; read-out: switch fluorescence ratio; sequence: "ATTTGGGTTT" 0.992

Request: switch fluorescence ratio, test system ATP, entry "CACCAGGAAT" 1.08

Observed switch fluorescence ratio on ATP for "TAAGTTAGTG" , please. 1

Entry "GCATCGCCAT" , system ATP: what switch fluorescence ratio was measured? 1.02

What is its switch fluorescence ratio for ATP? Entry: "GAACGGAGCT" 1.09

What is its switch fluorescence ratio for ATP? Entry: "TAGGTACTGG" 1.04

What measured switch fluorescence ratio is associated with "CATTTACCAT" on ATP? 1.03

Give switch fluorescence ratio (ATP) of the following sequence: "ATCATTTGTC" 1.02

For the record "ATGACCGGTT" , what value of switch fluorescence ratio is listed for ATP? 1.01

Recall the recorded switch fluorescence ratio for "TCAAGAGGTT" with ATP and state it. 1

Lookup: switch fluorescence ratio / ATP / "GTTTTGGGGG" 1.02

Item: "TAAGTCGGGA" Test system: ATP Read-out: switch fluorescence ratio Value: ? 0.952

# get_value(readout= switch fluorescence ratio, system= ATP) for "ACTGGTTTTG" 1.01

Query for ATP: what switch fluorescence ratio does the record show for "TGCGCTTGTC" ? 0.974

Recorded switch fluorescence ratio for "TTTGTTGAC" with ATP, please? 0.998

Reported switch fluorescence ratio for ATP, given "ACACGGCGGC" ? 1.07

Return switch fluorescence ratio measured with ATP given this sequence: "TATTATGACC" 1.01

// map "CGTGTAGTTT" to recorded switch fluorescence ratio (system: ATP) 1.01

API: value(readout= switch fluorescence ratio, system= ATP, query= "TTTTTAACAG" ) 0.997

Record lookup: for ATP, what switch fluorescence ratio belongs to "CGGAGGAGTA" ? 1.03

API: value(readout=switch fluorescence ratio, system=ATP) for record "GATTGGTGGC" 1.04

GET /values?readout=switch fluorescence ratio&system=ATP&item= "CGTGCGGGTG" 1.03

Item: "GTGGGCCAGC" Test system: ATP Read-out: switch fluorescence ratio Value: ? 0.964

Field: switch fluorescence ratio (ATP). Entry: "CGGCAGCCGG" 1.01

Entry "AATGGGTTGA" , system ATP: what switch fluorescence ratio was measured? 0.974

// lookup switch fluorescence ratio | system=ATP | key= "TATCTCCAAT" 1.12

Find switch fluorescence ratio (ATP) for the entry "ATTTTTATGG" 0.996

Which switch fluorescence ratio is reported with ATP for this entry: "GTGTAAAGTT" ? 0.972

What reported switch fluorescence ratio corresponds to "GCAAGGGTAT" on ATP? 1.01

Enter reported switch fluorescence ratio observed with ATP for "CCGGTGGATT" 1.21

Give switch fluorescence ratio (ATP) of the following sequence: "GATTTTTTGC" 0.982

Recorded switch fluorescence ratio for "ATAGGGGGCA" with ATP, please? 0.98

Look up switch fluorescence ratio with ATP for this sequence: "ATTTAAATTA" 1.01

API: value(readout=switch fluorescence ratio, system=ATP) for record "CGGTACGGAT" 0.989

Find the measured switch fluorescence ratio: item "AAGGGGGCCA" , target or system ATP. 0.982

Form field - read-out: switch fluorescence ratio; system: ATP; submitted item: "TTGAGGGGAA" 0.999

Notebook: pull reported switch fluorescence ratio for ATP, entry "TCATTCGTCC" 1.1
